Property: Average (percentage cell inhibition), Dmastoparan MDA-MB231 12.5uM; scope: individual compounds
# Tested on: MDA-MB-231 cells
Numbers only here, please. The scale is %.

Check out these entries, answers already filled in.
{"Smi": "CC[C@H](C)[C@H](N)C(=O)N[C@@H](CC(N)=O)C(=O)N[C@@H](CC(N)=O)C(=O)N[C@@H](CCCCN)C(=O)N[C@@H](C)C(=O)N[C@@H](CC(C)C)C(=O)N[C@@H](C)C(=O)N[C@@H](C)C(=O)N[C@@H](CC(C)C)C(=O)N[C@@H](C)C(=O)N[C@@H](CCCCN)C(=O)N[C@@H](CCCCN)C(=O)N[C@H](C(=O)N[C@@H](CC(C)C)C(N)=O)[C@@H](C)CC", "Value": 47.2847}
{"Smi": "CC[C@H](C)[C@H](N)C(=O)N[C@@H](CC(N)=O)C(=O)N[C@H](C(=O)N[C@@H](CCCCN)C(=O)N[C@@H](C)C(=O)N[C@@H](CC(C)C)C(=O)N[C@@H](C)C(=O)N[C@@H](C)C(=O)N[C@@H](CC(C)C)C(=O)N[C@@H](C)C(=O)N[C@@H](CCCCN)C(=O)N[C@@H](CCCCN)C(=O)N[C@H](C(=O)N[C@@H](CC(C)C)C(N)=O)[C@@H](C)CC)C(C)C", "Value": 35.8976}

Give Average (percentage cell inhibition), Dmastoparan MDA-MB231 12.5uM (MDA-MB-231 cells) of the following compound: CC[C@H](C)[C@H](N)C(=O)N[C@@H](CC(N)=O)C(=O)N[C@@H](CC(C)C)C(=O)N[C@@H](CCCCN)C(=O)N[C@@H](C)C(=O)N[C@@H](CC(C)C)C(=O)N[C@@H](C)C(=O)N[C@@H](CCCCN)C(=O)N[C@@H](CC(C)C)C(=O)N[C@@H](C)C(=O)N[C@@H](CCCCN)C(=O)N[C@@H](CCCCN)C(=O)N[C@H](C(=O)N[C@@H](CC(C)C)C(N)=O)[C@@H](C)CC
44.6441

These data points were gathered from paper PMC12748989.
